# Assay type: in vivo, healthy subjects (human)
# TEST CONDITIONS: human, plasma, oral, 40 mg
EXPERIMENTAL READOUT: Tmax (h)

[[record]]
compound = "CCn1c(=O)c2c(nc(/C=C/c3ccc(OC)c(OC)c3)n2C)n(CC)c1=O [Istradefylline]"
data_value = 2


###

# Type: in vivo, healthy subjects (human)
# TEST CONDITIONS: human, plasma, oral, 40 mg, AUClast, istradefylline 40 mg alone; arithmetic mean (SD)
EXPERIMENTAL READOUT: AUC(0-t) (ng·h/mL)

[[record]]
smiles_record = "CCn1c(=O)c2c(nc(/C=C/c3ccc(OC)c(OC)c3)n2C)n(CC)c1=O"
data_value = 9850


###

# Type: in vivo, healthy subjects (human)
# TEST CONDITIONS: human, plasma, oral, 40 mg
EXPERIMENTAL READOUT: half-life (h)

[[record]]
compound = "CCn1c(=O)c2c(nc(/C=C/c3ccc(OC)c(OC)c3)n2C)n(CC)c1=O [Istradefylline]"
data_value = 94.8


Data provenance is paper PMC5811788.
